Measured IC50 of individual entries
Biological target: T1, rh integrin α4β7 (R&D Systems #5397-A30) (human, UniProt P13612 34-970; P26010 20-723)
T1 construct: bought; coated on a nickel coated plate; also called immobilized α4β7; immobilized α4β7 integrin protein
Experiment: competition ELISA vs MAdCAM-1
Numbered stars: 1 amine (or outer) side, 2 acyl side, 3 side chain; on linkers, the order of the positions; unused ones are H or OH. Bridge positions count the residues as written; N and C are the ends. Square brackets hold non-standard residues; d marks the D form. Asp(OMe) = L-aspartic acid beta-methyl ester, COC(=O)C[C@H](N[*:1])C(=O)[*:2]; Phe(2,4-Cl2) = N[C@@H](Cc1ccc(Cl)cc1Cl)C(=O)O; NMeR = CN[C@@H](CCCNC(=N)N)C(=O)O; Pen = CC(C)(S)[C@H](N)C(=O)O

[
  {
    "Binder": "Ac-[Pen][NMeR]SDTL[Pen][Phe(2,4-Cl2)]E[dK]-NH2 (disulfide 1-7; SMILES CC(=O)N[C@@H]1C(=O)N(C)[C@@H](CCCNC(=N)N)C(=O)N[C@@H](CO)C(=O)N[C@@H](CC(=O)O)C(=O)N[C@@H]([C@@H](C)O)C(=O)N[C@@H](CC(C)C)C(=O)N[C@H](C(=O)N[C@@H](Cc2ccc(Cl)cc2Cl)C(=O)N[C@@H](CCC(=O)O)C(=O)N[C@H](CCCCN)C(N)=O)C(C)(C)SSC1(C)C) [SEQ ID NO: 16]",
    "Measured attribute": "IC50",
    "Measured value": "> 10 nM"
  }
]

Let us move to another entry and its IC50.
Task: Given the entry Ac-[Pen][NMeR]S[Asp(OMe)]TL[Pen]WE[dK]-NH2 (disulfide 1-7; also: Biotine, site of attachment not given here) [SEQ ID NO: 69] , report its measured IC50.
Output: > 10 nM
